Entries below carry reported pIC50 on Interstitial collagenase (Homo sapiens, UniProt P03956).
Sequence (P03956 whole entry): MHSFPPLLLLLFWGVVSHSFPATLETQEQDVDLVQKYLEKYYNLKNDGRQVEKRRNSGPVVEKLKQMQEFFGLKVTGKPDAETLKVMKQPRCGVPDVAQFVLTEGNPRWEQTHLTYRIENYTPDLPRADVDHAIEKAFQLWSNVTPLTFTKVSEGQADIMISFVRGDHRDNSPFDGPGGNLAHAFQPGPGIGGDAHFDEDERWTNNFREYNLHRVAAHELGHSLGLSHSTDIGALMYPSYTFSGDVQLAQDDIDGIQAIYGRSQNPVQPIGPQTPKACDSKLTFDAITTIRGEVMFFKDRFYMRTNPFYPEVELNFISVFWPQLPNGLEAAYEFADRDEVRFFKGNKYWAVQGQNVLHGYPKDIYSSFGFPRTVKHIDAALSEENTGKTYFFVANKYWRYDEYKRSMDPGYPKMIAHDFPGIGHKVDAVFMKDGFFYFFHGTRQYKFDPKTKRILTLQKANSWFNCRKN
Bear in mind: pIC50 is minus log10 of a mol/L concentration; give just that figure.

## Task Provide the reported pIC50 (system: Interstitial collagenase (Homo sapiens, UniProt P03956)) for `C=CCC(CC=C)(C(=O)NO)[C@@H](CC(C)C)C(=O)N[C@@H](Cc1ccccc1)C(=O)NC`
## Result 6.26

## Task Provide the reported pIC50 (system: Interstitial collagenase (Homo sapiens, UniProt P03956)) for `C=CC[C@](C)(C(=O)NO)[C@@H](CC(C)C)C(=O)N[C@H](C(=O)Nc1ccccc1)C(C)(C)C`
## Result 7.30

## Task Provide the reported pIC50 (system: Interstitial collagenase (Homo sapiens, UniProt P03956)) for `C=CC[C@@H](C(=O)NO)[C@@H](CC(C)C)C(=O)N[C@@H](Cc1ccccc1)C(=O)NC`
## Result 7.46

## Task Provide the reported pIC50 (system: Interstitial collagenase (Homo sapiens, UniProt P03956)) for `C=CC[C@](C)(C(=O)NO)[C@@H](CC(C)C)C(=O)N[C@@H](CC1CCCCC1)C(=O)NCCc1ccc(S(N)(=O)=O)cc1`
## Result 8.16

## Task Provide the reported pIC50 (system: Interstitial collagenase (Homo sapiens, UniProt P03956)) for `CNC(=O)[C@H](Cc1ccccc1)NC(=O)[C@H](CC(C)C)C(C)(C)C(=O)NO`
## Result 8.03

## Task Provide the reported pIC50 (system: Interstitial collagenase (Homo sapiens, UniProt P03956)) for `C=CC[C@](C)(C(=O)NO)[C@@H](CC(C)C)C(=O)N[C@@H](CC1CCCCC1)C(=O)NCCc1ccccc1`
## Result 6.96
